test system: rodent lifetime carcinogenesis bioassay, tumor incidence TD50; test: carcinogenic potency in animals, long-term in vivo studies, CPDB compilation (AID 1745844); conditions: mouse; strain Charles River CD1; females; inhaled; site: mammary gland; lesion: malignant tumor; dosed 26 weeks; study length 58 weeks
Reported endpoint: TD50 (mg/kg/day)
One number for each entry, in mg/kg/day.

Short answer for C=CCl : TD50 was 249

====

test system: rodent lifetime carcinogenesis bioassay, tumor incidence TD50; assay: carcinogenic potency in animals, long-term in vivo studies, CPDB compilation (AID 1745844); details: rat; strain Fischer 344; males; inhaled; site: adrenal medulla; lesion: pheochromocytoma benign, bilateral + pheochromocytoma, benign; dosed 104 weeks; study length 104 weeks
Reported endpoint: TD50 (mg/kg/day)
Answers are plain numbers, in mg/kg/day.

Short answer for CCc1ccccc1 : TD50 was 125

Each recorded value in this set is attributed to PubChem BioAssay AID1745844.
